human A2a receptor (Homo sapiens, UniProt P29274): reported Ki for various compounds.
Sequence (P29274 whole entry): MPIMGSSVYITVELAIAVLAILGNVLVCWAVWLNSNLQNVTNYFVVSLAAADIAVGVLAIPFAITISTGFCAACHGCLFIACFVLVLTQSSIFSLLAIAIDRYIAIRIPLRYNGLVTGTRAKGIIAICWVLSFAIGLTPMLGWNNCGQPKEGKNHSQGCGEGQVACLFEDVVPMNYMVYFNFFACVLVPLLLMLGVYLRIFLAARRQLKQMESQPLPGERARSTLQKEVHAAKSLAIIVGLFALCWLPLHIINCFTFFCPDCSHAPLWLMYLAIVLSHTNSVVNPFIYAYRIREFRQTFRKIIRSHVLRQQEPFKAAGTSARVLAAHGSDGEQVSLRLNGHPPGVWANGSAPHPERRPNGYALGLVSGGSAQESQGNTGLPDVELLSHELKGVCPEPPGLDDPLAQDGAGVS
Give the value in nM but do not write nM after it.

Query string: Return Ki measured with human A2a receptor (Homo sapiens, UniProt P29274) given this compound: Cc1nc(C(=O)NCc2ncc(C3CC3)cn2)c(N)nc1-c1ncco1 [Ex-197]
Result string: 6.37

Query string: Quick check: Ki on human A2a receptor (Homo sapiens, UniProt P29274), item Cc1nc(C(=O)NCc2ccc(O)cc2)c(N)nc1-c1ncco1 [Ex-155] ?
Result string: 13.9

Query string: Please provide the recorded Ki for Cc1nc(C(=O)N[C@H]2CCc3cc(F)ccc32)c(N)nc1-c1ncco1 [Ex-200] , tested on human A2a receptor (Homo sapiens, UniProt P29274).
Result string: 14.7
